Listed next: entries and their corresponding EC50.
- Test system: Jump-In T-REx CHO-K1 BLA cells
- Assay Comment: cells
- Type: cell-based
- Condition Notes: 0% FBS 4Hr; read-out: TETCHO: Counterscreen EC50
Positions of bridges follow the written chain, without caps; N, C: chain ends. Non-standard residues stand in square brackets, D forms with d. Residues, ends and D or L forms follow the SMILES beside them. 2Nal = N[C@@H](Cc1ccc2ccccc2c1)C(=O)O; R5 = C=CCCC[C@@](C)(N)C(=O)O; Aib = CC(C)(N)C(=O)O
Give the quantity in µM, number only.

Please review the entries below; each comes with its answer.
>  <Molecule>
CC(=O)N[C@@H](CC(C)C)C(=O)N[C@H](C(=O)N[C@@H](Cc1ccccc1)C(=O)N[C@]1(C)CCCCCCC=CCCC[C@@](C)(C(=O)N[C@@H](CO)C(=O)N[C@@H](C)C(=O)N[C@@H](C)C(N)=O)NC(=O)[C@H](CC(C)C)NC(=O)[C@H](CCC(N)=O)NC(=O)[C@H](C)NC(=O)[C@H](Cc2c[nH]c3ccccc23)NC(=O)[C@H](Cc2ccc(O)cc2)NC(=O)[C@H](CCC(=O)O)NC1=O)[C@@H](C)O [MP-154]

>  <Endpoint Value>
27.1

$$$$
>  <Molecule>
CC(=O)N[C@H](C(=O)N[C@@H](CO)C(=O)N[C@@H](Cc1ccc2ccccc2c1)C(=O)NC(C)(C)C(=O)N[C@@H](CCC(=O)O)C(=O)N[C@@H](Cc1ccc(O)cc1)C(=O)N[C@@H](Cc1c[nH]c2ccccc12)C(=O)N[C@@H](C)C(=O)N[C@@H](CC(C)C)C(=O)N[C@@H](CC(C)C)C(=O)NC(C)(C)C(N)=O)[C@@H](C)O [MP-161] (Ac-TS[2Nal][Aib]EYWALL[Aib]-NH2)

>  <Endpoint Value>
19.4

$$$$
>  <Molecule>
CC(=O)N[C@H](C(=O)N[C@@H](CO)C(=O)N[C@@H](Cc1ccccc1)C(=O)N[C@]1(C)CCCCCCC=CCCC[C@@](C)(C(N)=O)NC(=O)[C@H](CC(C)C)NC(=O)[C@H](CC(C)C)NC(=O)[C@H](C)NC(=O)[C@H](Cc2c[nH]c3ccccc23)NC(=O)[C@H](Cc2ccc(O)cc2)NC(=O)[C@H](CCC(=O)O)NC1=O)[C@@H](C)O [MP-090]

>  <Endpoint Value>
21.2

$$$$

Could you now look at the following molecule, please?
Data point: CC(=O)N[C@H](C(=O)N[C@@H](CO)C(=O)N[C@@H](Cc1ccccc1)C(=O)N[C@]1(C)CCCC=CCCC[C@](C)(C(=O)N[C@@H](CC(C)C)C(=O)N[C@@H](CC(C)C)C(=O)N[C@@H](CO)C(=O)N[C@@H](CCC(=O)O)C(=O)N[C@@H](CC(N)=O)C(=O)N[C@@H](Cc2ccccc2)C(N)=O)NC(=O)[C@H](Cc2c[nH]c3ccccc23)NC(=O)[C@H](Cc2ccc(O)cc2)NC(=O)[C@H](CCC(=O)O)NC1=O)[C@@H](C)O [MP-167] (Ac-TSF[R5]EYW[R5]LLSENF-NH2; staple 4-8) ; EC50 = 12.1

====

The entries below come with measured EC50 values attached.
- Assay Comment: Lactate dehydrogenase (LDH) release assay
- Assay type: cell-based
- Condition Notes: 0% FBS 4Hr; read-out: LDH: Cytotoxicity assay: EC50

>  <Query Smiles>
CC(=O)N[C@@H](CCCCN=[N+]=[N-])C(=O)NCCC(=O)N[C@@H](CC(C)C)C(=O)N[C@H](C(=O)N[C@@H](Cc1ccccc1)C(=O)N[C@]1(C)CCCCCCC=CCCC[C@@](C)(C(=O)N[C@@H](C)C(=O)N[C@@H](C)C(=O)N[C@@H](C)C(=O)O)NC(=O)[C@H](CC2CCC2)NC(=O)[C@H](CCC(N)=O)NC(=O)[C@H](C)NC(=O)[C@H](Cc2c[nH]c3ccccc23)NC(=O)[C@H](Cc2ccc(O)cc2)NC(=O)[C@H](CCC(=O)O)NC1=O)[C@@H](C)O

>  <EC50>
> 50.7 µM

$$$$

Field: next compound
Consider CC(=O)N[C@@H](CCCCN=[N+]=[N-])C(=O)NCCC(=O)N[C@@H](CC(C)C)C(=O)N[C@H](C(=O)N[C@@H](Cc1ccccc1)C(=O)N[C@]1(C)CCCCCCn2cc(nn2)CCC[C@@](C)(C(=O)N[C@@H](CO)C(=O)N[C@@H](C)C(=O)N[C@@H](C)C(N)=O)NC(=O)[C@H](CC2CCC2)NC(=O)[C@H](CCC(N)=O)NC(=O)[C@H](C)NC(=O)[C@H](Cc2c[nH]c3ccccc23)NC(=O)[C@H](Cc2ccc(O)cc2)NC(=O)[C@H](CCC(=O)O)NC1=O)[C@@H](C)O . Its measured EC50 is > 50.7 µM
